Test: AUC in mouse at 5 mg/kg, po
Format: ADME, organism-based
Parameters: dose 5 mg/kg, route oral
Conditions: plasma
metric: AUC (µM·h)
Could you give me the number in µM·h? Just the number is fine.

Quick one: AUC of CCn1nccc1Oc1cc(C[C@H]2C[C@](C)(O)C2)cnc1NC(=O)NC ?
6.84

###

Experiment: AUC in rat at 2 mg/kg, po
Format: ADME, organism-based
Parameters: dose 2 mg/kg, route oral
Settings: plasma
metric: AUC (µM·h)
Could you give me the number in µM·h? Just the number is fine.

Can you look up the measured AUC of CCn1nccc1Oc1cc(C[C@H]2C[C@](C)(O)C2)cnc1NC(=O)NC for me?
0.39

###

Experiment: Half life in rat at 1 mg/kg, iv
Type: ADME, organism-based
Set-up: dose 1 mg/kg, route intravenous
Details: in vivo
metric: half-life
Please answer using the number first and the unit second.

Which half-life value is on record for CCn1nccc1Oc1cc(CC2CCOCC2)cnc1NC(=O)NC ?
24.6 min

###

Assay: Half life in dog at 0.5 mg/kg, iv
Details: in vivo
metric: half-life (h)
Express it in h; write the number only.

Request the reported half-life associated with CCn1nccc1Oc1cc(C[C@H]2C[C@](C)(O)C2)cnc1NC(=O)NC
5.5

###

Test: Volume of distribution at steady state in dog at 0.5 mg/kg, iv
Conditions: in vivo, read-out: Vdss
metric: Vd (L/kg)
Answer in L/kg, number only, no unit symbol.

Could you tell me which Vd is on file for CCn1nccc1Oc1cc(C[C@H]2C[C@](C)(O)C2)cnc1NC(=O)NC ?
2.2

###

Test: Drug metabolism in human primary hepatocytes
Format: ADME, cell-based, Hepatocyte
Conditions: read-out: Drug metabolism
metric: metabolised (%)
Express it in %; write the number only.

Fill in the blank: the reported metabolised of CCn1nccc1Oc1cc(CC2CCOCC2)cnc1NC(=O)NC is ____.
15

###

Assay: Oral bioavailability in rat at 10 mg/kg
Type: ADME, organism-based
Details: in vivo
metric: bioavailability (%)
Dear colleague, please return just the value in %, with no unit written.

// returns reported bioavailability for input CCn1nccc1Oc1cc(CC2CCOCC2)cnc1NC(=O)NC
19

###

Test: Drug metabolism in human liver microsomes assessed as compound turnover at 1 uM after 30 mins
Assay type: ADME
Details: read-out: Drug metabolism
metric: metabolised at 0.5 h, 1 µM (%)
Report the figure in % without appending any unit label.

The following compounds have reported results that may help.
smiles input	unit abbrev	value observed
CCc1ncccc1Oc1cc(CCCCO)cnc1NC(=O)NC	%	20
CCOCCc1cnc(NC(=O)NC)c(Oc2cccnc2CC)c1	%	21
CCc1ncccc1Oc1cc(CCO)cnc1NC(=O)NC	%	10

What value of measured metabolised at 0.5 h, 1 µM is listed for CCn1nccc1Oc1cc(CC2CCOCC2)cnc1NC(=O)NC ?
10

Then this compound: CCc1ncccc1Oc1cc(CC(C)C)cnc1NC(=O)NC
56

And for CCc1ncccc1Oc1cc(CCCC(C)(C)O)cnc1NC(=O)NC ?
31

Could you do the same for CCc1ncccc1Oc1cc(CC2CCCCC2)cnc1NC(=O)NC , please?
99

Would you mind doing CCc1ncccc1Oc1cc(CCCCOC)cnc1NC(=O)NC as well?
23

Same question for CCn1nccc1Oc1cc(CCCC(C)(C)O)cnc1NC(=O)NC please.
10

Also need CCn1nccc1Oc1cc(CCCCOC)cnc1NC(=O)NC , thanks.
10
